- target.or.system: NADPH oxidase 5 (Homo sapiens) (UniProt Q96PH1)
- Sequence (Q96PH1 whole entry, looked up): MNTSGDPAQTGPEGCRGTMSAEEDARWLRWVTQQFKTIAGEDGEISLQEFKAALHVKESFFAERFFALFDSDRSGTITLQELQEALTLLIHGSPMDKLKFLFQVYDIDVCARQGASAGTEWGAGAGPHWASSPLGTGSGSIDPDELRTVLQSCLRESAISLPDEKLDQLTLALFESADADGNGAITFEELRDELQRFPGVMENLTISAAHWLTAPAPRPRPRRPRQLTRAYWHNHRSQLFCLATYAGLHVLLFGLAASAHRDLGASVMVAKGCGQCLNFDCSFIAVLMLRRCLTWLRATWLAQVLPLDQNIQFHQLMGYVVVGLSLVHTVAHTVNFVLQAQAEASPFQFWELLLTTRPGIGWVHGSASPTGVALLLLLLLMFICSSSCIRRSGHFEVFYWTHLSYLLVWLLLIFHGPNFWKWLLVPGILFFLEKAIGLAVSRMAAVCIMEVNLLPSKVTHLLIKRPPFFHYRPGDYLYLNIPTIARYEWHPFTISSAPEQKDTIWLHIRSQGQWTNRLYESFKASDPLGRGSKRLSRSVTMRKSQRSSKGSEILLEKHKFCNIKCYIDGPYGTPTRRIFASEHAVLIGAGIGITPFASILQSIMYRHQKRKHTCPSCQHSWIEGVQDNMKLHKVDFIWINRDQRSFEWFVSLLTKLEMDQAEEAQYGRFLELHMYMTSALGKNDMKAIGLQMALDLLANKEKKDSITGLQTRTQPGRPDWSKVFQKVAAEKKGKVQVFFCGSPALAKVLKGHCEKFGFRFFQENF
- test.method.notes: NOX5-dependent H2O2 signal modulators, primary screen, NOX inhibitor project, cell-based, HEK293-NOX5, Amplex Red fluorescence (AID 1161)
- condition.set: HEK293-NOX5, ionomycin, 45 min, higher = more signal
assay.readout: z-score
# respond with the number and nothing more

### Prompt Query (compound): NC(=O)NCC#Cc1ccc2c(c1)[C@]1(C(=O)N2)[C@H](C(=O)NC[C@H](O)c2ccccc2)[C@H]2C(=O)O[C@H](c3ccccc3)[C@H](c3ccccc3)N2[C@@H]1c1ccc(OCCO)cc1 ; field requested: z-score
### Response 0.737

***
### Prompt Query (compound): COCCCNC(=O)[C@@]1(Cc2ccccc2N=[N+]=[N-])N=C(c2ccc(OCCCO)cc2)O[C@H]1c1ccccc1 ; field requested: z-score
### Response -1.63

### Prompt Query (compound): O=C1OCC=C[C@H]2OC34C=CCN(Cn5nnc6ccccc65)C(=O)[C@H]3N(CCCO)C(=O)[C@@H]4[C@@H]12 (some centres not stated) ; field requested: z-score
### Response 0.1

### Prompt Query (compound): CC(C)(C)OC(=O)CC[C@]1(C(=O)NCc2ccccc2)N=C(c2ccc(OCCCO)cc2)O[C@H]1c1ccccc1CN=[N+]=[N-] ; field requested: z-score
### Response -1.47

### Prompt Query (compound): COc1ccc(-c2cc3c(c(CCc4ccccc4)n2)[Si](C(C)C)(C(C)C)OC3)cn1 ; field requested: z-score
### Response -1.49

### Prompt Query (compound): CC(=O)c1ccc(C(O)C2C=CC3C(=O)N(c4ccccc4)C(=O)C3N2Nc2ccc(C#N)cc2)cc1 (configuration not stated) ; field requested: z-score
### Response -4.43

### Prompt Query (compound): O=C(NCCCCCNC(=O)/C(Cc1ccccc1)=N/O)OCc1ccccc1 ; field requested: z-score
### Response -1.35

###

- target.or.system: Luciferin 4-monooxygenase (Photinus pyralis)
- test.method.notes: firefly luciferase enzyme inhibitors, primary screen, biochemical, luminescence, purified enzyme, 2006 set (AID 1141);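 further: cell-free assay with purified firefly luciferase at 100 ng per well in PBS; test concentration not given here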
- condition.set: SteadyGlo luminescence, 30 min, higher = more signal, called active from +8 up or from −8 down
assay.readout: z-score
# respond with the number and nothing more

### Prompt Query (compound): CC=CC(O)C1C=CC2C(=O)N(c3ccccc3)C(=O)C2N1Nc1ccccc1F (centres undefined) ; field requested: z-score
### Response 0.597

### Prompt Query (compound): C=CCC(OC(C)=O)[C@@H]1[C@@H](N(Cc2cc3ccccc3o2)C(=O)Cc2ccc(F)cc2)c2cc(OCCCO)ccc2N1C(=O)c1ccc2ccccc2c1 (some centres undefined) ; field requested: z-score
### Response -0.514

### Prompt Query (compound): CC(C)(C)N1CC=CC23O[C@@H]4C=CCOC(=O)[C@@H]4[C@H]2C(=O)N(CCCCCCO)[C@@H]3C1=O (some centres undefined) ; field requested: z-score
### Response -0.234

***
### Prompt Query (compound): COc1ccc([Si](C)(C)[C@@H]2[C@@H](CC(=O)N(CCO)Cc3ccccc3)O[C@]3(C(=O)N(Cc4cccc(N5C(=O)c6cccc7cccc5c67)c4)c4ccccc43)[C@H]2C)cc1 ; field requested: z-score
### Response 0.187

### Prompt Query (compound): COc1ccc([Si](C)(C)[C@@H]2[C@@H](CCO)O[C@]3(C(=O)N(Cc4ccc(N5CCCCC5=O)cc4)c4ccccc43)[C@H]2C)cc1 ; field requested: z-score
### Response -1.24

### Prompt Query (compound): C=CCOC(=O)[C@H]1[C@@H]2C(=O)O[C@@H](c3ccccc3)[C@@H](c3ccccc3)N2[C@@H](c2ccc(OCCOC(=O)[C@H]3C[C@H]4C(=O)N[C@@H](CC(C)C)C(=O)N4[C@H]3c3cccc(OCCO)c3)cc2)[C@]12C(=O)Nc1ccc(I)cc12 ; field requested: z-score
### Response -1.48

### Prompt Query (compound): [N-]=[N+]=NCc1ccccc1C[C@@]1(C(=O)NCc2ccccc2)N=C(c2ccc(OCCCO)cc2)O[C@@H]1c1ccccc1N=[N+]=[N-] ; field requested: z-score
### Response -6.99

### Prompt Query (compound): [N-]=[N+]=Nc1ccccc1[C@@H]1OC(c2ccc(OCCCO)cc2)=N[C@]1(Cc1ccccc1)C(=O)NCC(O)CO (some centres undefined) ; field requested: z-score
### Response -4.93

### Prompt Query (compound): COC(=O)[C@@]1(Cc2ccc(OC)cc2)[C@H]2c3cc(C(=O)N(C)C)n(C[C@H](O)CO)c3C[C@H]2CN1C(=O)c1ccccc1 ; field requested: z-score
### Response 0.543

### Prompt Query (compound): O=C1c2ccccc2[C@](Cc2ccccc2I)(C(=O)NCC(F)(F)F)[C@H](c2ccc(CO)cc2)N1C1CCCCC1 ; field requested: z-score
### Response -1.61

### Prompt Query (compound): COc1ccccc1CN1C(=O)c2ccccc2[C@@]2(Cc3ccccc3N(CC(F)(F)F)C2=O)[C@@H]1c1ccc(CO)cc1 ; field requested: z-score
### Response 0.962

### Prompt Query (compound): Cc1ccc(S[C@]2(C(=O)NCC(F)(F)F)CC(=O)N(Cc3ccccc3)[C@@H]2c2ccc(CO)cc2I)cc1 ; field requested: z-score
### Response 0.424

### Prompt Query (compound): COc1ccc(CCN2C(=O)[C@@]3(Cc4ccccc42)c2ccccc2C(=O)N(Cc2ccccc2OC)[C@H]3c2ccc(CO)cc2)cc1 ; field requested: z-score
### Response -0.377

### Prompt Query (compound): O=C1O[C@@H](c2ccccc2)[C@@H](c2ccccc2)N2[C@@H](c3ccc(O)cc3)[C@]3(C(=O)Nc4ccc(C#CC5=CCCCC5)cc43)[C@@H](C(=O)NC[C@H](O)c3ccccc3)[C@H]12 ; field requested: z-score
### Response -1.38

###

- target.or.system: Torsin-1A (Homo sapiens)
- test.method.notes: torsin A binders from cell lysate, primary screen, small-molecule microarray, wild-type, 635/667 nm (AID 1149)
- condition.set: COS7 hTOR1A-WT lysate, 635 nm fluorescence, higher = more signal
Each item that follows carries a reported composite z-score.
# respond with the number and nothing more

Would you please look over these solved cases?
### Prompt Entry CCOC(=O)C1=CC[C@@H](c2cccc(Cl)c2)N(S(=O)(=O)c2ccc(C)cc2)C1 , system Torsin-1A (Homo sapiens): what composite z-score was measured?
### Response 0.176

### Prompt Entry O=c1n(-c2ccccc2)c(=O)n2n1CC(COc1ccccc1)=C([C@H](O)CCc1ccccc1)[C@@H]2CO , system Torsin-1A (Homo sapiens): what composite z-score was measured?
### Response 0.8

### Prompt Entry C=CCC(OC(C)=O)[C@@H]1[C@@H](N(Cc2ccc(-c3cccc(C(F)(F)F)c3)o2)C(=O)c2ccc(C)cc2)c2cc(OCCCO)ccc2N1C(=O)c1ccc2ccccc2c1 (some centres undefined) , system Torsin-1A (Homo sapiens): what composite z-score was measured?
### Response -0.361

Alright, here's another molecule for you.
### Prompt Entry O=C(NCc1ccccc1)[C@@H]1c2ccccc2C(=O)N(Cc2ccccc2C(F)(F)F)[C@H]1c1ccc(CO)cc1 , system Torsin-1A (Homo sapiens): what composite z-score was measured?
### Response -1.55

###

- test.method.notes: HepG2 liver cancer cell viability effects, profiling panel, resazurin fluorescence, 24 h, PK04 Diversity Set (AID 1172); further: test concentration not given here
- condition.set: higher = more signal
Each item that follows carries a reported z-score.
# respond with the number and nothing more

Would you please look over these solved cases?
### Prompt Query (molecule): CC(C)C(=C=CC[C@H](O)c1cccc(OCCO)c1)C[C@H](O)c1cc(Cl)cc(Cl)c1O ; field requested: z-score
### Response 0.84

### Prompt Query (molecule): COCCOC(=O)N1C(=O)[C@@]2(c3cc(C#CC4=CCCCC4)ccc31)[C@H](c1ccc(O)cc1)N1[C@H](c3ccccc3)[C@H](c3ccccc3)OC(=O)[C@H]1[C@@H]2C(=O)N1CCN(c2ncccn2)CC1 ; field requested: z-score
### Response 0.295

### Prompt Query (molecule): CCOC(=O)c1ccc(NC(=O)O[C@H]2[C@H](OC(=O)Nc3ccc4c(c3)OCO4)[C@H](OC(=O)Nc3ccc4c(c3)OCO4)[C@@H](OC)O[C@@H]2CO)cc1 ; field requested: z-score
### Response -1.09

***
### Prompt Query (molecule): NC(=O)N1C(=O)C2C(C1=O)C1C=C(CCCO)C2C(c2cccs2)N1Cc1cccc(OC(F)(F)F)c1 (centres undefined) ; field requested: z-score
### Response 0.0214

### Prompt Query (molecule): COCCCNC(=O)[C@@]1(Sc2ccc(C)cc2)CC(=O)N(C2CCCCC2)[C@@H]1c1ccc(CO)cc1 ; field requested: z-score
### Response -0.0171

### Prompt Query (molecule): O=C1C2C=CC(C(O)c3ccccc3)N(Nc3ccccc3F)C2C(=O)N1c1ccccc1 (centres undefined) ; field requested: z-score
### Response 0.688

### Prompt Query (molecule): CN(C)CCCNC(=O)[C@@]1(C)c2ccccc2C(=O)N(Cc2ccccc2)[C@H]1c1ccc(CO)cc1 ; field requested: z-score
### Response -0.834

### Prompt Query (molecule): COCCOC(=O)N1C(=O)[C@@]2(c3cc(C#CC4=CCCCC4)ccc31)[C@H](c1ccccc1OCCO)N1[C@H](c3ccccc3)[C@H](c3ccccc3)OC(=O)[C@H]1[C@@H]2C(=O)Nc1nc2ccccc2s1 ; field requested: z-score
### Response 0.322

### Prompt Query (molecule): NC(=O)NCC#Cc1ccc2c(c1)[C@]1(C(=O)N2)[C@H](C(=O)O)[C@H]2C(=O)O[C@H](c3ccccc3)[C@H](c3ccccc3)N2[C@@H]1c1ccc(OCCO)cc1 ; field requested: z-score
### Response 0.626
